src = paper PMC5513444

The compounds listed here are annotated with their Cmax.
Assay: In vivo mouse PK after oral and intravenous administration
Settings: male mice, oral 10 mg/kg
Protocol: The oral exposure of the three compounds was evaluated in male mice by comparing exposures following oral (PO) and intravenous (IV) administration of 10 and 1 mg/kg doses of compounds, respectively (Table 7).
Could you give me the number in nM? Just the number is fine.

Lookup: I would be grateful if you could share the reported Cmax for FC(F)(F)Oc1ccc(CCNc2cc(-c3ccccc3)nc3ncnn23)cc1 [Compound 48] .
Found: 958

Lookup: // query: Cc1ccc(CCNc2cc(-c3ccccc3)nc3ncnn23)cc1 [Compound 44]
Found: 604

Lookup: // query: COc1ccc(CC(=O)Nc2cc(-c3ccccc3)nc3ncnn23)cc1 [Compound 49]
Found: 62.8
